B1: tRNA (parent)
chain: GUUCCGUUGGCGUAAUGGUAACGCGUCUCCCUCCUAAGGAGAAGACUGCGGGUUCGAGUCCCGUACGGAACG

# Variants of: B1
# assayOverview: yeast fitness relative to wild type (ratio to wild type); higher = fitter; tRNA-Arg(CCU), competitive growth, 37 C, YPD
Variants at the floor of the assay were thinned out.
measureName: yeast fitness

sequencevariant="C27A C29G" valuemodifier== observedvalue=0.702
sequencevariant="G23C A37C A45G C49G" valuemodifier== observedvalue=0.671
sequencevariant="C4A C31U A37G G48A U54A C55G A65U" valuemodifier=≤ observedvalue=0.5
sequencevariant="U59C A65C" valuemodifier== observedvalue=0.837
sequencevariant="C33G C61G" valuemodifier== observedvalue=0.815
sequencevariant="A14U U16A A65U" valuemodifier== observedvalue=0.626
sequencevariant="G12C C62G" valuemodifier== observedvalue=0.739
sequencevariant="C31U G67C" valuemodifier== observedvalue=0.902
sequencevariant="U13G A36C C46U" valuemodifier=≤ observedvalue=0.5
sequencevariant="U2C C29U A37G A65G" valuemodifier=≤ observedvalue=0.5
sequencevariant="A15C C29A C60G G68A" valuemodifier== observedvalue=0.609
sequencevariant="A14C A43C A57G C66U" valuemodifier=≤ observedvalue=0.5
sequencevariant="U19C A37C A45C C46A" valuemodifier== observedvalue=0.897
sequencevariant="U53C C61A G68A" valuemodifier== observedvalue=0.58
sequencevariant="G9A C31A A43U C61A" valuemodifier=≤ observedvalue=0.5
sequencevariant="C30G C55G U59A U64G" valuemodifier=≤ observedvalue=0.5
sequencevariant="C4G C61G A65C" valuemodifier=≤ observedvalue=0.5
sequencevariant="C29A A37U A43C" valuemodifier== observedvalue=0.733
sequencevariant="A15U A20G C55U G63C" valuemodifier=≤ observedvalue=0.5
sequencevariant="A20U C34A C62U" valuemodifier== observedvalue=0.542
sequencevariant="C5G C29U A40G A57G" valuemodifier=≤ observedvalue=0.5
sequencevariant="C11U C30U A42U G51A A57U A65U A70U" valuemodifier=≤ observedvalue=0.5
